System: NCI-1703
protocolText: cell viability of NCI-1703 cells, 1 and 10 uM of each erlotinib derivative, and IC50
Format: cell-based
experimentalContext: Homo sapiens; 10 uM
Form field: viability at 10 µM (one value per entry).
Give just the number in %; leave the unit off.

Briefly, viability at 10 µM measured for Clc1cccc(Nc2nc3ccccc3nc2Nc2cccc(Cl)c2)c1 [TD56] : 28.8

----------
Form field: viability at 10 µM (one value per entry).
Tested on: NCI-1703
protocolText: cell viability of NCI-1703 cells, 1 and 10 uM of each erlotinib derivative, and IC50
Assay type: cell-based
experimentalContext: Homo sapiens; 10 uM
Give just the number in %; leave the unit off.

Worked examples follow.
Briefly, viability at 10 µM measured for "C#Cc1cccc(Nc2nc3ccc([N+](=O)[O-])cc3nc2Nc2cccc(C#C)c2)c1" : 12.5

Briefly, viability at 10 µM measured for "COc1ccc(Nc2nc3ccc([N+](=O)[O-])cc3nc2Nc2cccc(O)c2)cc1" : 13.4

Briefly, viability at 10 µM measured for "C#Cc1cccc(Nc2nc3cc([N+](=O)[O-])ccc3nc2Nc2ccc(OC)cc2)c1" : 13.8

Briefly, viability at 10 µM measured for "FC(F)(F)c1cccc(Nc2nc3ccccc3nc2Nc2cccc(C(F)(F)F)c2)c1" : 26.1

Briefly, viability at 10 µM measured for "COC(=O)c1ccc2nc(Nc3ccc(OC(F)(F)F)cc3)c(Nc3ccc(OC(F)(F)F)cc3)nc2c1" : 19.5

Briefly, viability at 10 µM measured for "FS(F)(F)(F)(F)c1ccc(Nc2nc3ccccc3nc2Nc2ccc(S(F)(F)(F)(F)F)cc2)cc1" : 33.3

New cases:
Briefly, viability at 10 µM measured for "O=[N+]([O-])c1ccc2nc(Nc3cccc(Br)c3)c(Nc3cccc(Br)c3)nc2c1" : 31.9

Briefly, viability at 10 µM measured for "COc1ccc(Nc2nc3ccc([N+](=O)[O-])cc3nc2Nc2ccc(OC)cc2)cc1" : 9.8

Briefly, viability at 10 µM measured for "O=[N+]([O-])c1ccc2nc(Nc3cccc(O)c3)c(Nc3cccc(O)c3)nc2c1" : 24.8

Briefly, viability at 10 µM measured for "Cc1ccc(Nc2nc3ccccc3nc2Nc2ccc(C)c(O)c2)cc1O" : 10.1

Briefly, viability at 10 µM measured for "c1ccc(Oc2ccc(Nc3nc4ccccc4nc3Nc3ccc(Oc4ccccc4)cc3)cc2)cc1" : 46.7

Briefly, viability at 10 µM measured for "C#Cc1cccc(Nc2nc3ccccc3nc2Nc2cccc(C#C)c2)c1" : 10.1

Briefly, viability at 10 µM measured for "N#CCc1ccc(Nc2nc3ccccc3nc2Nc2ccc(CC#N)cc2)cc1" : 65.2

Cited source for all entries: patent US10189795B2
